Kindly state pIC50 for each of the entries shown.
Test: Cytotoxicity against human colchicine-resistant KBC2 cells in presence of 2.5 uM colchicine after 48 hrs by MTT assay
Format: cell-based
Settings: KB-C2, 48 h
One number for each entry, as −log10 of the molar value.

smilesEntry	quantitativeResult
COC(=O)CC(=O)O[C@@H]1CC[C@]2(C)[C@H]3CC[C@@H]4[C@@H]([C@]5(C)CC[C@H](C(C)(C)O)O5)CC[C@@]4(C)[C@]3(C)CC[C@H]2C1(C)C	4.87
CC(C)(O)[C@@H]1CC[C@@](C)([C@H]2CC[C@]3(C)[C@@H]2CC[C@@H]2[C@@]4(C)CCC(=O)C(C)(C)[C@@H]4CC[C@]23C)O1	4.20
C=C(C)[C@@H](O)CC[C@](C)(O)[C@H]1CC[C@]2(C)[C@@H]1CC[C@@H]1[C@@]3(C)CCC(=O)C(C)(C)[C@@H]3CC[C@]12C	4.53

Here's the next entry for you.
`COC(=O)CC(=O)O[C@@H]1CC[C@]2(C)[C@H]3CC[C@@H]4[C@@H]([C@]5(C)CCC(=O)O5)CC[C@@]4(C)[C@]3(C)CC[C@H]2C1(C)C` yielded pIC50 of 5.48
